# Test system: Pseudomonas aeruginosa
# protocol.details: Antibacterial activity against Pseudomonas aeruginosa ATCC 27853 assessed as bacterial growth inhibition
# Type: functional
attribute.measured: MIC

Below are worked cases with known answers.
molecule="C/C=C1\\NC(=O)C(NC(=O)c2cc3cc(Cl)ccc3o2)C(O)CNC(=O)C(C(O)CN)NC(=O)C(C(O)CN)NC(=O)[C@H](CCCNC(=N)N)NC(=O)[C@H](CC(C)C)NC(=O)[C@H](CCN)NC1=O (stereo partly specified)" observed="4 µg/mL"
molecule="C/C=C1\\NC(=O)C(NC(=O)[C@H]2CC[C@H](CNC(=O)OCc3ccccc3)CC2)C(O)CNC(=O)C(C(O)CN)NC(=O)C(C(O)CN)NC(=O)[C@H](CCCNC(=N)N)NC(=O)[C@H](CC(C)C)NC(=O)[C@H](CCN)NC1=O (stereo partly specified)" observed="8 µg/mL"

With Pseudomonas aeruginosa as the test system, C/C=C1\NC(=O)C(NC(=O)c2ccc(NS(=O)(=O)Cc3ccccc3)cc2)C(O)CNC(=O)C(C(O)CN)NC(=O)C(C(O)CN)NC(=O)[C@H](CCCNC(=N)N)NC(=O)[C@H](CC(C)C)NC(=O)[C@H](CCN)NC1=O (stereo partly specified) showed MIC of 256 µg/mL

# value of MIC, Pseudomonas aeruginosa, item C/C=C1\NC(=O)C(NC(=O)c2cn3c4c(c(N5CCN(C)CC5)c(F)cc4c2=O)OC[C@@H]3C)C(O)CNC(=O)C(C(O)CN)NC(=O)C(C(O)CN)NC(=O)[C@H](CCCNC(=N)N)NC(=O)[C@H](CC(C)C)NC(=O)[C@H](CCN)NC1=O (stereo partly specified) = 32 µg/mL

Reported Pseudomonas aeruginosa MIC for item C/C=C1\NC(=O)C(NC(=O)c2ccc(-c3cc(-c4ccc(OCCCCC)cc4)on3)cc2)C(O)CNC(=O)C(C(O)CN)NC(=O)C(C(O)CN)NC(=O)[C@H](CCCNC(=N)N)NC(=O)[C@H](CC(C)C)NC(=O)[C@H](CCN)NC1=O (stereo partly specified) was 16 µg/mL

Hey, Pseudomonas aeruginosa data for C/C=C1\NC(=O)C(NC(=O)c2cn(-c3ccccc3)nc2-c2ccc(Cl)cc2)C(O)CNC(=O)C(C(O)CN)NC(=O)C(C(O)CN)NC(=O)[C@H](CCCNC(=N)N)NC(=O)[C@H](CC(C)C)NC(=O)[C@H](CCN)NC1=O (stereo partly specified) : MIC came out at 8 µg/mL

###

# reported MIC; entries follow
# Test system: Pseudomonas aeruginosa
# protocol.details: Antibacterial activity against Pseudomonas aeruginosa ATCC 27853 assessed as bacterial growth inhibition
# Format: functional

molecule="C/C=C1\\NC(=O)C(NC(=O)COc2ccc(/C=C/C(=O)OC(C)(C)C)cc2)C(O)CNC(=O)C(C(O)CN)NC(=O)C(C(O)CN)NC(=O)[C@H](CCCNC(=N)N)NC(=O)[C@H](CC(C)C)NC(=O)[C@H](CCN)NC1=O (some centres undefined)" observed="4 mg/L"
molecule="C/C=C1\\NC(=O)C(NC(=O)Cc2ccc(NC(=O)Nc3c(C)cccc3C)c(Cl)c2)C(O)CNC(=O)C(C(O)CN)NC(=O)C(C(O)CN)NC(=O)[C@H](CCCNC(=N)N)NC(=O)[C@H](CC(C)C)NC(=O)[C@H](CCN)NC1=O (some centres undefined)" observed="128 mg/L"
molecule="C/C=C1\\NC(=O)C(NC(=O)Cc2c(C)n(C(=O)c3ccc(Cl)cc3)c3ccc(OC)cc23)C(O)CNC(=O)C(C(O)CN)NC(=O)C(C(O)CN)NC(=O)[C@H](CCCNC(=N)N)NC(=O)[C@H](CC(C)C)NC(=O)[C@H](CCN)NC1=O (some centres undefined)" observed="8 mg/L"

C/C=C1\NC(=O)C(NC(=O)CCc2nc(-c3ccncc3)no2)C(O)CNC(=O)C(C(O)CN)NC(=O)C(C(O)CN)NC(=O)[C@H](CCCNC(=N)N)NC(=O)[C@H](CC(C)C)NC(=O)[C@H](CCN)NC1=O (some centres undefined) yielded MIC of > 256 mg/L

###

# protocol.details: Lipophilicity, logD of compound
# Assay type: physicochemical
# condition.details: octanol/water
Item-by-item account of logD
Keep it simple and answer with nothing but the number.

Worked cases, answers included:
molecule="C/C=C1\\NC(=O)C(NC(=O)CCCCCCCCC)C(O)CNC(=O)C(C(O)CN)NC(=O)C(C(O)CN)NC(=O)[C@H](CCCNC(=N)N)NC(=O)[C@H](CC(C)C)NC(=O)[C@H](CCN)NC1=O (some centres undefined)" observed=3.756
molecule="C/C=C1\\NC(=O)C(NC(=O)COc2ccc(/C=C/C(=O)OC(C)(C)C)cc2)C(O)CNC(=O)C(C(O)CN)NC(=O)C(C(O)CN)NC(=O)[C@H](CCCNC(=N)N)NC(=O)[C@H](CC(C)C)NC(=O)[C@H](CCN)NC1=O (some centres undefined)" observed=2.65

Reported logD ( C/C=C1\NC(=O)C(NC(=O)c2ccc(Oc3ccccc3CCCC)cc2)C(O)CNC(=O)C(C(O)CN)NC(=O)C(C(O)CN)NC(=O)[C@H](CCCNC(=N)N)NC(=O)[C@H](CC(C)C)NC(=O)[C@H](CCN)NC1=O (some centres undefined) ) = 4.984

Reported logD for C/C=C1\NC(=O)C(NC(=O)c2cc3cc(Cl)ccc3o2)C(O)CNC(=O)C(C(O)CN)NC(=O)C(C(O)CN)NC(=O)[C@H](CCCNC(=N)N)NC(=O)[C@H](CC(C)C)NC(=O)[C@H](CCN)NC1=O (some centres undefined) was 2.829

###

# Test system: Acinetobacter baumannii
# protocol.details: Antibacterial activity against Acinetobacter baumannii ATCC 19606 assessed as bacterial growth inhibition
# Type: functional
# condition.details: ATCC 19606 = CIP 70.34 = JCM 6841
attribute.measured: MIC (µg/mL)
Answer format: numeric, µg/mL implied, no suffix.

Sample C/C=C1\NC(=O)C(NC(=O)[C@H]2CC[C@H](CNC(=O)OCc3ccccc3)CC2)C(O)CNC(=O)C(C(O)CN)NC(=O)C(C(O)CN)NC(=O)[C@H](CCCNC(=N)N)NC(=O)[C@H](CC(C)C)NC(=O)[C@H](CCN)NC1=O (some centres not stated) ; MIC observed: 256

###

# System: Acinetobacter baumannii
# protocol.details: Antibacterial activity against Acinetobacter baumannii ATCC 19606 assessed as bacterial growth inhibition
# Format: functional
# condition.details: ATCC 19606 = CIP 70.34 = JCM 6841
Each record here notes measured log10(MIC).
# values: log10(MIC), units µg/mL

molecule="C/C=C1\\NC(=O)C(NC(=O)c2cn(-c3ccccc3)nc2-c2ccc(Cl)cc2)C(O)CNC(=O)C(C(O)CN)NC(=O)C(C(O)CN)NC(=O)[C@H](CCCNC(=N)N)NC(=O)[C@H](CC(C)C)NC(=O)[C@H](CCN)NC1=O (some centres not stated)" observed=0.90

Kindly note: Acinetobacter baumannii, C/C=C1\NC(=O)C(NC(=O)C2CC3(CCN(C(=O)OC(C)(C)C)CC3)c3ccccc32)C(O)CNC(=O)C(C(O)CN)NC(=O)C(C(O)CN)NC(=O)[C@H](CCCNC(=N)N)NC(=O)[C@H](CC(C)C)NC(=O)[C@H](CCN)NC1=O (some centres not stated) , log10(MIC) value reported: 2.41

The measured log10(MIC) that C/C=C1\NC(=O)C(NC(=O)c2ccc(-c3cc(-c4ccc(OCCCCC)cc4)on3)cc2)C(O)CNC(=O)C(C(O)CN)NC(=O)C(C(O)CN)NC(=O)[C@H](CCCNC(=N)N)NC(=O)[C@H](CC(C)C)NC(=O)[C@H](CCN)NC1=O (some centres not stated) showed for Acinetobacter baumannii is 1.20

Simply: C/C=C1\NC(=O)C(NC(=O)CCc2nc(-c3ccc(OC)cc3)no2)C(O)CNC(=O)C(C(O)CN)NC(=O)C(C(O)CN)NC(=O)[C@H](CCCNC(=N)N)NC(=O)[C@H](CC(C)C)NC(=O)[C@H](CCN)NC1=O (some centres not stated) , Acinetobacter baumannii, log10(MIC) = 0.90

Sample C/C=C1\NC(=O)C(NC(=O)CCc2nc(-c3ccncc3)no2)C(O)CNC(=O)C(C(O)CN)NC(=O)C(C(O)CN)NC(=O)[C@H](CCCNC(=N)N)NC(=O)[C@H](CC(C)C)NC(=O)[C@H](CCN)NC1=O (some centres not stated) , system: Acinetobacter baumannii. Its log10(MIC) is 2.41

###

# System: Pseudomonas aeruginosa
# protocol.details: Antibacterial activity against Pseudomonas aeruginosa ATCC 27853 assessed as bacterial growth inhibition
# Format: functional
Returns: string. Value is condition met if measured MIC is below 8 µg/mL, and condition not met if it is greater than or equal to it.

Sample answers from the record:
compound="C/C=C1\\NC(=O)C(NC(=O)C2CC3(CCN(C(=O)OC(C)(C)C)CC3)c3ccccc32)C(O)CNC(=O)C(C(O)CN)NC(=O)C(C(O)CN)NC(=O)[C@H](CCCNC(=N)N)NC(=O)[C@H](CC(C)C)NC(=O)[C@H](CCN)NC1=O (some centres undefined)" study_system="Pseudomonas aeruginosa" cat="condition not met"
compound="C/C=C1\\NC(=O)C(NC(=O)c2cn3c4c(c(F)c(F)cc4c2=O)OC[C@@H]3C)C(O)CNC(=O)C(C(O)CN)NC(=O)C(C(O)CN)NC(=O)[C@H](CCCNC(=N)N)NC(=O)[C@H](CC(C)C)NC(=O)[C@H](CCN)NC1=O (some centres undefined)" study_system="Pseudomonas aeruginosa" cat="condition not met"
compound="C/C=C1\\NC(=O)C(NC(=O)C2CCCN(C(=O)c3ccc(Cl)c(Cl)c3)C2)C(O)CNC(=O)C(C(O)CN)NC(=O)C(C(O)CN)NC(=O)[C@H](CCCNC(=N)N)NC(=O)[C@H](CC(C)C)NC(=O)[C@H](CCN)NC1=O (some centres undefined)" study_system="Pseudomonas aeruginosa" cat="condition not met"
compound="C/C=C1\\NC(=O)C(NC(=O)c2ccc(-c3nnn(CC(=O)N(C)C)n3)cc2)C(O)CNC(=O)C(C(O)CN)NC(=O)C(C(O)CN)NC(=O)[C@H](CCCNC(=N)N)NC(=O)[C@H](CC(C)C)NC(=O)[C@H](CCN)NC1=O (some centres undefined)" study_system="Pseudomonas aeruginosa" cat="condition not met"
compound="C/C=C1\\NC(=O)C(NC(=O)CCCCCCCCC(=O)OCc2ccccc2)C(O)CNC(=O)C(C(O)CN)NC(=O)C(C(O)CN)NC(=O)[C@H](CCCNC(=N)N)NC(=O)[C@H](CC(C)C)NC(=O)[C@H](CCN)NC1=O (some centres undefined)" study_system="Pseudomonas aeruginosa" cat="condition not met"

Qu. Given the entry C/C=C1\NC(=O)C(NC(=O)CCCCCCCCC)C(O)CNC(=O)C(C(O)CN)NC(=O)C(C(O)CN)NC(=O)[C@H](CCCNC(=N)N)NC(=O)[C@H](CC(C)C)NC(=O)[C@H](CCN)NC1=O (some centres undefined) , would its reported MIC be below 8 µg/mL?
Ans. condition met

Qu. Would you kindly verify if MIC of C/C=C1\NC(=O)C(NC(=O)c2ccc(Oc3ccccc3CCCC)cc2)C(O)CNC(=O)C(C(O)CN)NC(=O)C(C(O)CN)NC(=O)[C@H](CCCNC(=N)N)NC(=O)[C@H](CC(C)C)NC(=O)[C@H](CCN)NC1=O (some centres undefined) is strictly less than 8 µg/mL?
Ans. condition met
